Biological target: T1, cyno CD3 (cyno (cynomolgus monkey), UniProt Q95LI5 22-198)
T1 construct: whole, on cells; also called CD3 on Cynomolgus T-cells
T1 sequence (Q95LI5 22-198): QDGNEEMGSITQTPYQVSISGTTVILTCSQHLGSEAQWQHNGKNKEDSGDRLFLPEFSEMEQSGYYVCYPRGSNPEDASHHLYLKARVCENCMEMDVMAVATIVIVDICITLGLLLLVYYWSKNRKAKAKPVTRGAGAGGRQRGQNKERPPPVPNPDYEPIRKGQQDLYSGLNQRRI
Assay: cell binding, activated cyno PBMC; E. coli protein
Listing of entries alongside the reported pEC50.
Scale: pEC50 equals -log10([C]), with [C] in mol/L.

Previously resolved entries follow.
binder: Fab1-HS115-Folate (Fab, V domains shown, pAF at HS115 (Kabat) conjugated to folate (oxime), From E. coli; Fab-folate conjugate) VH: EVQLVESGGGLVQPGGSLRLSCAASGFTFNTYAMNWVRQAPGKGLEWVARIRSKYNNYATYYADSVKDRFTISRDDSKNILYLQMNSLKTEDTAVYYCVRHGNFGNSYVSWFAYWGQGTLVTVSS VL: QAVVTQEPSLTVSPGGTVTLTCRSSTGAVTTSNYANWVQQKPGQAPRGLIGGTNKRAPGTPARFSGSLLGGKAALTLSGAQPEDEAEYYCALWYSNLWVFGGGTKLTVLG
pEC50: 8.86
--
binder: Fab1-HA114-Folate (Fab, V domains shown, pAF at HA114 (Kabat) conjugated to folate (oxime), From E. coli; Fab-folate conjugate) VH: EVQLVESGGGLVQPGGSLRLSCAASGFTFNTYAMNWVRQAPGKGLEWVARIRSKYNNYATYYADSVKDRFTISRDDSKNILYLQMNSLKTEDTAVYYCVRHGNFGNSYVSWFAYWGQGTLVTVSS VL: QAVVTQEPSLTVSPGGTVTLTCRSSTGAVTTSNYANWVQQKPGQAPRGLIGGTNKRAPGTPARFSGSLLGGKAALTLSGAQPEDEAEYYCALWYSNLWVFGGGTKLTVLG
pEC50: 8.86

// recorded pEC50 for Fab1-HS115-pAF1 (Fab, V domains shown, para-acetyl-phenylalanine (pAF) at HS115 (Kabat), From E. coli; also called Fab1 HS115pAF, unconjugated) VH: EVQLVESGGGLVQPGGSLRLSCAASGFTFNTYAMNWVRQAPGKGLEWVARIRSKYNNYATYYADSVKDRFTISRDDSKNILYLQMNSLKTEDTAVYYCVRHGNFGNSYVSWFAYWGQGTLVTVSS VL: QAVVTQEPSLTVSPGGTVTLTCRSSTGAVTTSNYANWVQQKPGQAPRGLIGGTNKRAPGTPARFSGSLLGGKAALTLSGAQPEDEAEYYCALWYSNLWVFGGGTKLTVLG : 8.75
